Molecular target: human RGS12 RGS-box (wild-type) (Homo sapiens, UniProt O14924)
Construct: human RGS12 RGS-box (aa 695–843 of UniProt O14924); host or cells: E. coli
Assay: Transcreener GDP RGScreen fluorescence polarization assay of RGS12 RGS-box GAP activity on Gαi1(DM)
Type: biochemical
Conditions: wild-type RGS12 RGS-box GAP activity, Gαi1(DM), read-out: RGS12 pIC50 (converted)
TEST READOUT: IC50 (µM)

Example entries begin here.
> print(dat)
                                   compound  test.readout  quantitative.readout
1  O=C(O)CC1Sc2nnc(C3CC3)n2N=C1c1ccc(F)cc1 (stereo not drawn) [Z90274599]          IC50                  41.7
2  COc1ccc(-c2nnc3n2N=C(c2ccc(NC(C)=O)cc2)[C@@H](C)S3)cc1OC [Z90277200]          IC50                  18.6
3  O=C(O)CC1Sc2nnc(C3CCCO3)n2N=C1c1ccc(Cl)cc1 (stereo not drawn) [Z90278051]          IC50                   107
4  COC(=O)C1Sc2nnc(COc3ccc(F)cc3)n2N=C1c1cc2ccccc2o1 (stereo not drawn) [Z8201263931]          IC50                  40.7
5  COc1ccccc1C1=CSc2nnc(COc3ccccc3)n2N1 [Z56944652]          IC50                  3.39

P. COc1cccc(C2=Nn3c(COc4ccc(Cl)cc4)nnc3SC2)c1 [Z55660496]
Q. COc1cccc(OCc2nnc3n2N=C(c2ccccc2)[C@H](CC(=O)O)S3)c1 [Z90278437]
R. CC(C)c1nnc2n1N=C(c1cc3ccccc3o1)CS2 [Z55627782]
S. CC1Sc2nnc(Cc3ccc(Br)cc3)n2N=C1c1ccc(Cl)cc1 (stereo not drawn) [Z55660592]
Output the entries ranked by IC50 from maximum down to minimum. Quick reminder: the answer is the labels in the order asked.
Q, P, R, S

====

Molecular target: human RGS12 RGS-box (wild-type) (Homo sapiens, UniProt O14924)
Construct: human RGS12 RGS-box (aa 695–843 of UniProt O14924); host or cells: E. coli
Sequence (O14924 695-843): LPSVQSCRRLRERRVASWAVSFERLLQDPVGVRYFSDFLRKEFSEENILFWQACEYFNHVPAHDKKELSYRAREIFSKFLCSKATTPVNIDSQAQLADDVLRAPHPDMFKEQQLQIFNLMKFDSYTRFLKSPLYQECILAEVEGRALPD
Test: Transcreener GDP RGScreen fluorescence polarization assay of RGS12 RGS-box GAP activity on Gαi1(DM)
Type: biochemical
Settings: wild-type RGS12 RGS-box GAP activity, Gαi1(DM), read-out: RGS12 pIC50 (converted)
TEST READOUT: IC50 (µM)

Sample records with IC50:
> print(dat)
                                   compound  quantitative.readout
1  COc1ccc(OCc2nnc3n2N=C(c2cc(C)n(-c4nccs4)c2C)CS3)cc1                  64.6
2  C[C@H]1Sc2nnc(Cc3ccc(Br)cc3)n2N=C1c1ccc(NS(C)(=O)=O)cc1                  13.5
3  O=C(O)CC1Sc2nnc(C3CC3)n2N=C1c1ccccc1 (stereo not shown)                   151
4  CSc1nnc2n1N=C(c1ccc(NC(=O)C(C)C)cc1)[C@H](C)S2                  61.7
5  C1=C(c2cc3ccccc3o2)Nn2c(nnc2C2COc3ccccc3O2)S1 (stereo not shown)                  5.75

I. O=C(O)CC1Sc2nnc(C3COc4ccccc4O3)n2N=C1c1cccs1 (stereo not shown)
II. COc1ccc(OCc2nnc3n2N=C(c2cc4ccccc4o2)CS3)cc1
Looking at recorded values for IC50, does I or II come in lower? Write down the label attached to your selection.
II
(II: 21.9 µM, I: 44.7 µM)
